System: Rattus norvegicus
Assay explanation: Antiinflammatory activity against carrageenan/Evans blue dye-induced pleural effusion rat model assessed as reduction in pleural fluid volume at 0.4 mmol/kg, po administered 1 hr prior challenge measured 6 hrs post challenge relative to control
Assay type: functional
Set-up: scale not given: the % may be the effect or the level left
Hi, to clarify the labels: Y covers Activity from 10% upward, N covers anything below 10%.

INSERT INTO measurements (smiles_data, category) VALUES
  ('O=C(O)CCn1nc(-c2ccccc2)c(-c2ccccc2)n1', 'Y'),
  ('Cl.O=C(O)CCn1ncc(-c2cccnc2)n1', 'N'),
  ('O=C(O)CCn1nncc1-c1ccccc1', 'N'),
  ('O=C(O)CCn1cc(-c2cccc(Br)c2)nn1', 'Y'),
  ('O=C(O)CCc1cnn(-c2ccccc2)n1', 'Y'),
  ('O=C(O)CCc1ncn(-c2ccccc2)n1', 'Y'),
  ('O=C(O)CCc1cnn(-c2cccc(Cl)c2)n1', 'Y'),
  ('O=C(O)CCn1ncc(-c2cc(Cl)cc(Cl)c2)n1', 'N'),
  ('O=C(O)/C=C/c1cnn(-c2cccc(Br)c2)n1', 'Y'),
  ('O=C(O)CCc1cnn(-c2cccc(Br)c2)n1', 'Y'),
  ('O=C(O)CCc1nc(-c2ccccc2)n[nH]1', 'N'),
  ('O=C(O)CCCn1ncc(-c2ccccc2)n1', 'Y'),
  ('O=C(O)CCc1cn(-c2cccc(F)c2)nn1', 'N'),
  ('Cc1nn(CCC(=O)O)nc1-c1ccccc1', 'Y'),
  ('O=C(O)CCn1ncc(-c2cccc(Cl)c2)n1', 'Y');
